- system-tested: T1, human GIP receptor (human) (UniProt P48546)
- T1 sequence (looked up): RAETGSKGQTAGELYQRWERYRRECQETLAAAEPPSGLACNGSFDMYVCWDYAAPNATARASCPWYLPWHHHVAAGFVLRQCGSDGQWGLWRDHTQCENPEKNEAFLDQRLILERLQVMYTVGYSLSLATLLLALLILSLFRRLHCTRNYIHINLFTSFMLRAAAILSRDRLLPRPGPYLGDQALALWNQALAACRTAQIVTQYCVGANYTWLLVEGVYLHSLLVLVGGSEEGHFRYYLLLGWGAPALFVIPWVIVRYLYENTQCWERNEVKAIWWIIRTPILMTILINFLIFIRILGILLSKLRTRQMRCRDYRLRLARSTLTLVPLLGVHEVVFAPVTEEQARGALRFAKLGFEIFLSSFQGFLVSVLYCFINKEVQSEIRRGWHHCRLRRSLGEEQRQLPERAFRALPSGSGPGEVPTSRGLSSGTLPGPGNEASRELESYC
- protocol-description: cell-based or functional assay
Non-standard residues stand in square brackets, D forms with d. No end group written: not given here. αMeF = C[C@](N)(Cc1ccccc1)C(=O)O; Aib = CC(C)(N)C(=O)O
quantity-kind: cAMP Rel EC50 (1% HSA) (nM)
Dear colleague, please return just the value in nM, with no unit written.

Quick one: cAMP Rel EC50 (1% HSA) of YXQGTXTSDXXIXLDXKAQXEFIEXLIEGGPSSGEPPPESE (non-natural residues; K acylated AEEA-γGlu-C18 diacid; C-amide; synthetic construct; SITE 2: note = 2-Aminoisobutyric Acid; SITE 6: note = alpha-methyl-2-fluoro-L-phenylalanine; SITE 10: note = 3-(4-Pyridyl)-L-alanine; SITE 11: note = alpha-methyl-L-serine; SITE 13: note = alpha-methyl-leucine; SITE 16: note = L-ornithine; SITE 17: note = Lysine is chemically mo) [Example 1147] ?
0.831

Quick one: cAMP Rel EC50 (1% HSA) of YXQGTFTSDXSQXLDKKAQXAFIEXLIEXGPSSGEPPPSGSEE (Aib, 4Pal, Me4Pal, αMeL; lipidated Lys; C-terminal amide; synthetic construct; SITE 2: note = 2-Aminoisobutyric Acid; SITE 10: note = 3-(4-Pyridyl)-L-alanine; SITE 13: note = alpha-methyl-leucine; SITE 17: note = Lysine is chemically modified through conjugation of the epsilon-amino group of the Lysine side chain with (gamma-Glu)2-CO-(CH2)16-CO2H; SITE 20:) [Example 1125] ?
3.95

Quick one: cAMP Rel EC50 (1% HSA) of YXQGTFTSDXSQXLDXKAQXAFIEYLIAXGPSSGEPPPSGSEE (non-natural residues, acylated Lys ((γGlu)2-C18 diacid), C-terminal amide; synthetic construct; SITE 2: note = 2-Aminoisobutyric Acid; SITE 10: note = 3-(4-Pyridyl)-L-alanine; SITE 13: note = alpha-methyl-leucine; SITE 16: note = L-ornithine; SITE 17: note = Lysine is chemically modified through conjugation of the epsilon-amino group of the Lysine side chain with (gamma-Gl)) [Example 1092] ?
7.83

Quick one: cAMP Rel EC50 (1% HSA) of YXQGTFTSDXXQXLDXKAQXQFIQXLIEXGPSSGAPPPSGGGE (not fully specified; synthetic construct; SITE 2: note = 2-Aminoisobutyric Acid; SITE 10: note = 3-(4-Pyridyl)-L-alanine; SITE 11: note = alpha-methyl-L-serine; SITE 13: note = alpha-methyl-leucine; SITE 16: note = L-ornithine; SITE 17: note = Lysine is chemically modified through conjugation of the epsilon-amino group) [Example 1137] ?
2.05

Quick one: cAMP Rel EC50 (1% HSA) of YXQGTFTSDXSQXLDKKAQXAFIEYLIEXGPSSGAPPPSGSE (C-terminal amide; lysine acylated with γ-Glu-C18 diacid; synthetic construct; SITE 2: note = 2-Aminoisobutyric Acid; SITE 10: note = 3-(4-Pyridyl)-L-alanine; SITE 13: note = alpha-methyl-leucine; SITE 17: note = Lysine is chemically modified through conjugation of the epsilon-amino group of the Lysine side chain with D-Glutamic acid-(gamma-Glu)-CO-(CH2)16) [Example 924] ?
15.7

Quick one: cAMP Rel EC50 (1% HSA) of YXQGTFTSDFSXXLDXKAQXAFIEXLLEGGPSSGAPPPGGSEE (non-natural residues; Lys acylated C18 diacid via γGlu2; C-term amide; synthetic construct; SITE 2: note = 2-Aminoisobutyric Acid; SITE 12: note = L-ornithine; SITE 13: note = alpha-methyl-leucine; SITE 16: note = L-ornithine; SITE 17: note = Lysine is chemically modified through conjugation of the epsilon-amino group of the Lysine side chain with (gamma-Glu)2-CO-(CH2)) [Example 1050] ?
68.5

Quick one: cAMP Rel EC50 (1% HSA) of YXQATXTSDXXIXLDXKAQXEFIEXLIEGGPSSGAPPPSGS (synthetic construct; SITE 2: note = 2-Aminoisobutyric Acid; SITE 4: note = D-amino acid; SITE 6: note = alpha-methyl-2-fluoro-L-phenylalanine; SITE 10: note = 3-(4-Pyridyl)-L-alanine; SITE 11: note = alpha-methyl-L-serine; SITE 13: note = alpha-methyl-leucine; SITE 16: note = L-ornithine; SITE 17: n) [Example 1203] ?
8.5

Quick one: cAMP Rel EC50 (1% HSA) of YXQGTFTSDXSQXLDXKAQXAFIEXLIEGGPSSGAPPPSGSEE (Aib, 4Pal, αMeL, Orn, Me4Pal, αMeY; acylated Lys; C-terminal amide; synthetic construct; SITE 2: note = 2-Aminoisobutyric Acid; SITE 10: note = 3-(4-Pyridyl)-L-alanine; SITE 13: note = alpha-methyl-leucine; SITE 16: note = L-ornithine; SITE 17: note = Lysine is chemically modified through conjugation of the epsilon-amino group of the Lysine side chain with D-Glutami) [Example 1070] ?
27.3

Quick one: cAMP Rel EC50 (1% HSA) of YXQGTFTSDXSQXLDKKAQXAFIEXLIEXGPSSGEPPPSGE (Aib, 4Pal, αMeL, Me4Pal; acylated Lys; C-terminal amide; synthetic construct; SITE 2: note = 2-Aminoisobutyric Acid; SITE 10: note = 3-(4-Pyridyl)-L-alanine; SITE 13: note = alpha-methyl-leucine; SITE 17: note = Lysine is chemically modified through conjugation of the epsilon-amino group of the Lysine side chain with (gamma-Glu)2-CO-(CH2)16-CO2H; SITE 20:) [Example 1123] ?
3.89

Quick one: cAMP Rel EC50 (1% HSA) of YXQGTFTSDXSQXLDXKAQXAFIEXLLAGGPSSGAPPPSGSEEE (Lys acylated γGlu-C18 diacid; non-natural residues; C-amide; synthetic construct; SITE 2: note = 2-Aminoisobutyric Acid; SITE 10: note = 3-(4-Pyridyl)-L-alanine; SITE 13: note = alpha-methyl-leucine; SITE 16: note = L-ornithine; SITE 17: note = Lysine is chemically modified through conjugation of the epsilon-amino group of the Lysine side chain with D-Glutami) [Example 1082] ?
12.3

Quick one: cAMP Rel EC50 (1% HSA) of YXQGTFTSDXSKXLDKKAQXAFIEYLIEXGPSSGAPPPSGSEEE (non-natural residues; (γGlu)2-C18 diacid on Lys; C-terminal amide; synthetic construct; SITE 2: note = 2-Aminoisobutyric Acid; SITE 10: note = 3-(4-Pyridyl)-L-alanine; SITE 13: note = alpha-methyl-leucine; SITE 17: note = Lysine is chemically modified through conjugation of the epsilon-amino group of the Lysine side chain with (gamma-Glu)2-CO-(CH2)16-CO2H; SITE 20:) [Example 906] ?
15.4

Quick one: cAMP Rel EC50 (1% HSA) of YXQGTFTSDXSQXLDKKAQXAFIEYLLEAGPSSXAPPPSGT (possibly C-terminal amide; synthetic construct; SITE 2: note = 2-Aminoisobutyric Acid; SITE 10: note = 3-(4-Pyridyl)-L-alanine; SITE 13: note = alpha-methyl-leucine; SITE 17: note = Lysine is chemically modified through conjugation of the epsilon-amino group of the Lysine side chain with (2-[2-(2-Amino-ethoxy)-ethoxy]-acetyl)) [Example 824] ?
28.9

Quick one: cAMP Rel EC50 (1% HSA) of YXQGTFTSDXSQXLDKKAQXAFIEYLIEXGPSSGAPPPSEG (non-natural residues; lipidated Lys AEEA-γGlu-C18 diacid; synthetic construct; SITE 2: note = 2-Aminoisobutyric Acid; SITE 10: note = 3-(4-Pyridyl)-L-alanine; SITE 13: note = alpha-methyl-leucine; SITE 17: note = Lysine is chemically modified through conjugation of the epsilon-amino group of the Lysine side chain with (2-[2-(2-Amino-ethoxy)-ethoxy]-acetyl)) [Example 918] ?
18

Quick one: cAMP Rel EC50 (1% HSA) of YXQGTFTSDXSXXLDXKAQXAFIEXLLEGGPSSGAPPPSGSEE (non-natural residues, Glu-γGlu-C18 diacid acylation, C-terminal amide; synthetic construct; SITE 2: note = 2-Aminoisobutyric Acid; SITE 10: note = 3-(4-Pyridyl)-L-alanine; SITE 12: note = L-ornithine; SITE 13: note = alpha-methyl-leucine; SITE 16: note = L-ornithine; SITE 17: note = Lysine is chemically modified through conjugation of the epsilon-amino group of the Lys) [Example 1066] ?
69.9

Quick one: cAMP Rel EC50 (1% HSA) of YXQGTFTSDFSXXLDKKAQXAFIEYLIEXGPSSGAPPPSGS (synthetic construct; SITE 2: note = 2-Aminoisobutyric Acid; SITE 12: note = (S)-2,4-diaminobutanoic acid; SITE 13: note = alpha-methyl-leucine; SITE 17: note = Lysine is chemically modified through conjugation of the epsilon-amino group of the Lysine side chain with (2-[2-(2-Amino-ethoxy)-ethoxy]-ac)) [Example 799] ?
18.4

Quick one: cAMP Rel EC50 (1% HSA) of YXQGTFTSDXSRXLDKKAQXAFIEXLLEGGPSSGAPPPSGS (non-natural residues; lipidated Lys; C-terminal amide; synthetic construct; SITE 2: note = 2-Aminoisobutyric Acid; SITE 10: note = 3-(4-Pyridyl)-L-alanine; SITE 13: note = alpha-methyl-leucine; SITE 17: note = Lysine is chemically modified through conjugation of the epsilon-amino group of the Lysine side chain with (2-[2-(2-Amino-ethoxy)-ethoxy]-acetyl)) [Example 909] ?
20.2

Quick one: cAMP Rel EC50 (1% HSA) of YXQGTFTSDFSXXLDKKAQXAFIEYLIEXSPSSGAPPPSGS (synthetic construct; SITE 2: note = 2-Aminoisobutyric Acid; SITE 12: note = L-ornithine; SITE 13: note = alpha-methyl-leucine; SITE 17: note = Lysine is chemically modified through conjugation of the epsilon-amino group of the Lysine side chain with (2-[2-(2-Amino-ethoxy)-ethoxy]-acetyl)-(gamma-Glu)) [Example 804] ?
17.6

Quick one: cAMP Rel EC50 (1% HSA) of Y[Aib]QGT[αMeF]TSDYSILLDKIAAKNFIEYLVEGGPSSGEPPPSEG-NH2 (not fully specified (residue 20)) [Example 307] ?
65.3

meta.source: patent US20240270821A1
